- assay procedure: NCI Yeast Anticancer Drug Screen. Data for the mlh1 rad18 strain (AID 175)
- condition context: S. cerevisiae mlh1 rad18 strain growth inhibition; at 50.0 µM; hits give high values
Compounds without any hit were thinned out: in the full panel of roughly 79,000, 15% have a hit. Active and inactive are the calls of the source. No stated cut-off is given here; in the data, active means growth inhibition above about 70%; inactive means the rest.
Please respond with reported growth inhibition for every item in the list.

Lab book: growth inhibition of [N-]=[N+]=NC1CC(n2ccc(N)nc2=O)OC1CO (stereo unspecified) noted as 8.8% (inactive)

Lab book: growth inhibition of CCCC(O)C(C)C(C)O (stereo unspecified) noted as -8.75% (inactive)

Lab book: growth inhibition of "O=C(Nc1ccccc1)c1cccc(F)c1" noted as 7.6% (inactive)

Lab book: growth inhibition of "[Cl][Pt+2][Cl].[NH-]c1ccc(CC(=O)O)cc1[NH-]" noted as -4.2% (inactive)

Lab book: growth inhibition of "Cc1cc(OCc2ccc3ccccc3c2)ccc1Nc1cc(=O)[nH]c(=O)[nH]1" noted as 24.4% (inactive)

Lab book: growth inhibition of O=c1[nH]c(=O)n(C2OC(CO)C(O)C2O)cc1I (stereo unspecified) noted as -13.8% (inactive)

###

- assay procedure: NCI Yeast Anticancer Drug Screen. Data for the mlh1 rad18 strain (AID 175)
- condition context: S. cerevisiae mlh1 rad18 strain growth inhibition; at 50.0 µM; hits give high values
- Method: Growth inhibition of yeast strains with defined genetic alterations is measured as a screen for potential anti-cancer activity. Selected strains with alterations in DNA damage repair or cell cycle control were exposed to compounds and growth inhibition was measured relative to vehicle treated controls. The strain used in this assay is mlh1 rad18
The panel holds about 79,000 compounds, 15% with a hit somewhere; the sample as a whole holds those more often.
Please respond with reported growth inhibition for every item in the list.
# unit: % | format: bare number

Lab book: growth inhibition of "CC(C)(C)CC(=O)Nc1ccccc1" noted as 9.25

Lab book: growth inhibition of "O=C(NC(=O)c1ccc(F)c(Cl)c1)NC1CC1" noted as 5.3

Lab book: growth inhibition of CCCCOCCOCCOC(=O)C(C)O (stereo not drawn) noted as -14

Lab book: growth inhibition of "CCOC(=O)c1ccc(NCc2cccc([N+](=O)[O-])c2)cc1" noted as 31.6

Lab book: growth inhibition of "Cc1ccc(NC(=O)CSc2nnc(-c3ccc(N=Cc4ccc(Cl)cc4)cc3)o2)cc1" noted as 18.6

Lab book: growth inhibition of CCOC(=O)C(=O)C(/C(=N/N(C)C)C(=O)Nc1ccc(C)cc1C)c1nc2ccccc2[nH]c1=O (stereo not drawn) noted as 12.5

Lab book: growth inhibition of "COC(=O)N/N=C/c1oc(-c2cccc([N+](=O)[O-])c2)c(-c2cccc([N+](=O)[O-])c2)c1[N+](=O)[O-]" noted as 22.6

Lab book: growth inhibition of Nc1ccccc1SC(CC(=O)c1ccccc1)c1cccc([N+](=O)[O-])c1 (stereo not drawn) noted as -13.5

Lab book: growth inhibition of "C1=C(C2=CCCCC2)CCCC1" noted as 4.15

Lab book: growth inhibition of "CCN(CC)c1ccc(/C=C\c2c(C)cnc3ccccc23)cc1" noted as -9.45

Lab book: growth inhibition of COc1ccc(/C=C2\CCC(CNc3cc(C)on3)C2=O)cc1 (stereo not drawn) noted as -19.4

Lab book: growth inhibition of "C=C1C(=O)O[C@@H]2[C@H]1CC[C@H](C)[C@]1(O)CCC(=O)[C@@]21C" noted as 3

Lab book: growth inhibition of Nc1ncnc2c(C3OC(CO)C(O)C3O)nsc12 (stereo not drawn) noted as -38

Lab book: growth inhibition of "CSc1cnc2ccccc2c1Sc1c[nH]c2ccccc2c1=O" noted as -12.4

Lab book: growth inhibition of C[N+](C)(C)CC(=O)N/N=C(\C(=O)NC1=C(Cl)C(=O)c2ccccc2C1=O)C(C#N)c1csc(-c2ccc([N+](=O)[O-])cc2)n1 (stereo not drawn) noted as 19.9

Lab book: growth inhibition of "O=C(COc1ccc(Cl)cc1)Nc1ccccc1Br" noted as -4.55

Lab book: growth inhibition of "Cc1ncc(Cl)c2cc3ccccc3cc12" noted as -7.55

Lab book: growth inhibition of "CC(=O)NS(=O)(=O)c1ccc(N=C=S)cc1" noted as -1.05

Lab book: growth inhibition of "CC(=O)Nc1ccc2oc(=O)ccc2c1" noted as -11.1

Lab book: growth inhibition of "O=C(O)/C=C/C=C/c1ccccc1" noted as 32.8

Lab book: growth inhibition of "c1ccc2[nH]cnc2c1" noted as -46.8

Lab book: growth inhibition of CNCC1OC(OC)C2OC(C)(C)OC12 (stereo not drawn) noted as 5.05

Lab book: growth inhibition of CC12CCC(=O)C=C1CCC1C2CCC2(C)C1CCC2(O)C(=O)Cn1c(=O)cc[nH]c1=O (stereo not drawn) noted as 11.5

Lab book: growth inhibition of "COc1ccc(N=C2SC(=N/N=c3\sc4ccccc4n3C)SC2=Nc2ccc(OC)cc2)cc1" noted as -12.7

Lab book: growth inhibition of "CNCCNc1ncc([N+](=O)[O-])s1" noted as -32.5

Lab book: growth inhibition of CC(C(=O)O)n1c(=O)ssc1=O (stereo not drawn) noted as 0

Lab book: growth inhibition of "Nc1nc(N)nc(SCC(=O)O)n1" noted as 14.9

Lab book: growth inhibition of Cc1ccc(NC(=O)OCC2CC3C=CC2C3)cc1 (stereo not drawn) noted as 97.7

Lab book: growth inhibition of "OCc1cccc(F)c1" noted as -5.35

Lab book: growth inhibition of N#CC(c1ccccc1)C1CCCCC1 (stereo not drawn) noted as 20.4

Lab book: growth inhibition of CCCC(C)C(=O)OC1CCCCC1 (stereo not drawn) noted as 3

Lab book: growth inhibition of Oc1ccccc1CN1CCOCC1 (tested in a mixture with another compound) noted as -6.25

Lab book: growth inhibition of "CCCC(=O)Oc1ccc2ccccc2c1" noted as -33.5

Lab book: growth inhibition of "O=S1(=O)OCOS(=O)(=O)OCO1" noted as -19.9

Lab book: growth inhibition of "O=[N+]([O-])c1ccc(-c2cc3ccccc3nc2Cl)cc1" noted as 17

Lab book: growth inhibition of NC(CC(=O)NC(CC(=O)O)C(=O)O)C(=O)O (stereo not drawn) noted as 5.2

Lab book: growth inhibition of "CN(C)CCOC(=O)c1cccc(CCl)c1" noted as 7.95

Lab book: growth inhibition of "Brc1ccc(N=N/C(=N/Nc2ccccc2)c2ccc(/C=N/Nc3ccccc3)cc2)cc1" noted as 34.4

Lab book: growth inhibition of COC1(OC)CC2C(=O)N(Cc3ccccc3)C1C(S(=O)(=O)c1ccccc1)C2S(=O)(=O)c1ccccc1 (stereo not drawn) noted as 64.8

Lab book: growth inhibition of "CCOC(=O)C(C=Nc1ccc(S(N)(=O)=O)cc1)C(=O)OCC" noted as -24.9

Lab book: growth inhibition of "Cc1cc(C)c(C(=O)O)c(C)c1Br" noted as 4.5

Lab book: growth inhibition of "CCCCCn1cnc2cc(N3CCOCC3)c([N+](=O)[O-])cc2c1=O" noted as 14.3

Lab book: growth inhibition of "Clc1ccc2nsnc2c1Cl" noted as 8.1

Lab book: growth inhibition of Cc1cc2ncn(C3OC(CO)C(O)C3O)c2cc1C (stereo not drawn) noted as 2.65

Lab book: growth inhibition of "CCOP(=O)(OCC)/C(C#N)=C/c1c(C)[nH]c2ccccc12" noted as 25.7

Lab book: growth inhibition of "O=C(O)c1c2c(nc3ccccc13)Cc1ccccc1-2" noted as -39.8

Lab book: growth inhibition of CC(C)CC1NC(=O)C(C(C)C)NC(=O)CC(C)COC(=O)C(CC(C)C)N(C)C(=O)C(C(C)C)NC(=O)C(C(C)C)OC1=O (stereo not drawn) noted as 14.3

Lab book: growth inhibition of CC1NC(C)c2ccc3ccccc3c2O1 (stereo not drawn) noted as -6.15
